Reference source for all entries: PubChem BioAssay (NCI)

Assay: NCI Yeast Anticancer Drug Screen. Data for the cln2 rad14 strain (AID 165);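 also: 0% = growth equal to vehicle treated cultures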
Details: S. cerevisiae cln2 rad14 strain, at 50.0 µM, hits give high values
Protocol: Growth inhibition of yeast strains with defined genetic alterations is measured as a screen for potential anti-cancer activity. Selected strains with alterations in DNA damage repair or cell cycle control were exposed to compounds and growth inhibition was measured relative to vehicle treated controls. The strain used in this assay is cln2 rad14
Compounds without any hit were thinned out: in the full panel of roughly 79,000, 15% have a hit.
Below, each of the compounds is paired with its reported growth inhibition value.
Return type: number; implicit unit %.

Data request: Which growth inhibition reading was recorded for the compound CCOC(=O)C1CC(=O)C=C2CCCCC21 (stereo unspecified) ?
Data returned: 5.35

Data request: Another compound: "O=[N+]([O-])c1ccccc1-c1ccccc1CO"
Data returned: -23.4

Data request: Another compound: "COc1ccccc1NS(=O)(=O)c1ccc2ncn(NS(=O)(=O)c3ccc(Cl)cc3)c(=O)c2c1"
Data returned: 0.05
